- system tested: UniProt B3VTJ2
- Sequence (B3VTJ2 1-941): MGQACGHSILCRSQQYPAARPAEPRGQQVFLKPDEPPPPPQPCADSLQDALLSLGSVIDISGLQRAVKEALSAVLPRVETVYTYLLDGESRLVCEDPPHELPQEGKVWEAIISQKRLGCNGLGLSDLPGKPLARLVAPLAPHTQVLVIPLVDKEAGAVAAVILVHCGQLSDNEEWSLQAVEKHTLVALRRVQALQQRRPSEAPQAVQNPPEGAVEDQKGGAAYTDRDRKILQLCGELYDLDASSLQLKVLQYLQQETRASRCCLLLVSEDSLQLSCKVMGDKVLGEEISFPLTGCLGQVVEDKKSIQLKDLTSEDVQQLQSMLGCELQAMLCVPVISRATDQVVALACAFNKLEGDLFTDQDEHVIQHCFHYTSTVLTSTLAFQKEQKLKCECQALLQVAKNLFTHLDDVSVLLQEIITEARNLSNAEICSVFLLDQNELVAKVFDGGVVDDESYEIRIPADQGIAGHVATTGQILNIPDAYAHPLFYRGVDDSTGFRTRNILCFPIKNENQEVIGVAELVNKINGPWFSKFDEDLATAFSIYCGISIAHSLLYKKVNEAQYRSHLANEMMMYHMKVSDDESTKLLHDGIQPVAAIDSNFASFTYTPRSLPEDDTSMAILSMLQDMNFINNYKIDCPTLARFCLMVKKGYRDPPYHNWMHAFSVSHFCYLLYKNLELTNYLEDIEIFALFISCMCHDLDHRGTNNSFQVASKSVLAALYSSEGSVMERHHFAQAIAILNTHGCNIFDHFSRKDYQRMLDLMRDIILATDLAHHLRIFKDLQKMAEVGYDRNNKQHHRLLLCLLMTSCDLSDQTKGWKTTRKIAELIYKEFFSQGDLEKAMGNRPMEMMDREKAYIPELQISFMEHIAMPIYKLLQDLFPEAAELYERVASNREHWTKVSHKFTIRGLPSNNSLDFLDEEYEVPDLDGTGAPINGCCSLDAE
- procedure text: PDE2 fluorescence polarization (IMAP FP) inhibition assay, rhesus enzyme
- Format: biochemical, rhesus macaque
- details: Rhesus PDE2, Lab A; read-out: Rhesus PDE2 Ki (nM) - Lab A
property label: Ki

query: Annotate the compound CC(C)(NC(=O)c1cc(=O)[nH]c(-c2ccccc2)n1)c1ccc(F)c(F)c1 with its measured Ki.
result: ~449 nM

query: Annotate the compound C[C@@H](NC(=O)c1cc(=O)[nH]c(-c2ccccc2)n1)c1ccc(O)cc1 with its measured Ki.
result: ~417 nM

query: Annotate the compound Cc1nc(C(=O)NC(c2ccccc2)c2ccc(C(F)(F)F)cc2)cc(=O)[nH]1 (stereo not shown) with its measured Ki.
result: 1420 nM

query: Annotate the compound C[C@@H](NC(=O)c1cc(=O)[nH]c(-c2ncccn2)n1)c1ccc(C2CC2)cc1 with its measured Ki.
result: 5.3 nM

query: Annotate the compound CC(NC(=O)c1cc(=O)[nH]c(C2CC2)n1)c1ccc(C(F)(F)F)cn1 (stereo not shown) with its measured Ki.
result: 683 nM

query: Annotate the compound O=C(N[C@@H](c1ccc(C(F)(F)F)cc1)C1CC1)c1cc(=O)[nH]c(-c2ncccn2)n1 with its measured Ki.
result: 20 nM

query: Annotate the compound CC(C)(NC(=O)c1cc(=O)[nH]c(-c2ccccc2)n1)c1ccc(SC(F)(F)F)c(F)c1 with its measured Ki.
result: ~78 nM
